- assayOverview: compounds binding Alexa647 anti-His antibody – biochemical, small-molecule microarray, 635 nm fluorescence, artefact control for SMM control protein annotation, primary screen (AID 1128);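 note: score merges feature fluorescence with signal-to-noise for each printed compound spot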
- details: higher = more signal
observationType: composite z-score

>  <compound>
CC(C)(C)OC(=O)CC[C@@]1(C(N)=O)N=C(c2ccc(OCCCO)cc2)O[C@@H]1c1ccccc1N=[N+]=[N-]

>  <val>
1.12

$$$$
>  <compound>
OCCCc1cc[n+](Cc2cccc(OC(F)(F)F)c2)cc1

>  <val>
1.62

$$$$
>  <compound>
Cc1ccc(S(=O)(=O)N2CC(C(=O)O)=CCC2c2ccccc2)cc1 (stereo not given)

>  <val>
-0.67

$$$$
>  <compound>
C=C[C@H](C)[C@H](OC(=O)Nc1ccc(OC)cc1)c1ccc(O)c2ccccc12

>  <val>
-0.732

$$$$
>  <compound>
CCN(CC)c1ccc(N2CC=CC34O[C@@H]5/C=C\CCC(C)OC(=O)C5[C@H]3C(=O)N(CCCCCCO)[C@@H]4C2=O)cc1 (stereo not given in full)

>  <val>
0.0517

$$$$
>  <compound>
CN(C)CCCN1C(=O)[C@@]2(c3ccc([N+](=O)[O-])cc3)CC(=O)N(C3CCCCC3)[C@@H]2c2ccc(CO)cc21

>  <val>
0.0598

$$$$
>  <compound>
CC(C)[C@H]1COC(=O)N1C(=O)[C@H]1[C@@H](c2ccccc2)N(c2ccccc2)O[C@@H]1C

>  <val>
-0.0372

$$$$
>  <compound>
CCCNC(=O)[C@@]1(c2ccc([N+](=O)[O-])cc2)CC(=O)N(CC23CC4CC(CC(C4)C2)C3)[C@@H]1c1ccc(CO)cc1I

>  <val>
1.02

$$$$
>  <compound>
CO[C@H]1O[C@H](CO)[C@@H](OC(=O)Nc2cccc(F)c2)[C@H](OC(=O)Nc2ccccc2-c2ccccc2)[C@@H]1OC(=O)Nc1ccccc1-c1ccccc1

>  <val>
1.61

$$$$
>  <compound>
NC(=O)[C@]1(Cc2ccccc2)N=C(c2ccc(OCCCO)cc2)O[C@@H]1c1ccccc1

>  <val>
1.15

$$$$
>  <compound>
CCCCC(=O)N(Cc1ccccc1F)[C@@H]1CC(C(=O)NCCO)=C[C@H](Oc2c(I)cc(CO)cc2OC)[C@H]1O

>  <val>
1.28

$$$$
>  <compound>
O=C(NCCN1CCOCC1)[C@@H]1c2ccccc2C(=O)N(Cc2cc(F)cc(C(F)(F)F)c2)[C@H]1c1ccc(CO)cc1

>  <val>
0.195

$$$$
>  <compound>
C[N+](C)(C)CCCCNC(=O)[C@H]1C[C@H]2C(=O)N3CCC[C@H]3C(=O)N2[C@H]1c1ccc(O)cc1

>  <val>
2.67

$$$$
>  <compound>
COCCOC(=O)N1C(=O)[C@@]2(c3cc(C#CCC(C(=O)OC)C(=O)OC)ccc31)[C@H](c1ccc(OCCO)cc1)N1[C@H](c3ccccc3)[C@H](c3ccccc3)OC(=O)[C@H]1[C@@H]2C(=O)NC[C@H](O)c1ccccc1

>  <val>
1.18

$$$$
>  <compound>
CC(C)(C)OC(=O)CC[C@@]1(C(=O)NCC(O)CO)N=C(c2ccc(OCCCO)cc2)O[C@@H]1c1ccccc1 (stereo not given in full)

>  <val>
0.0885

$$$$
